Target: Human PD-L1/PD-1 (Homo sapiens)
Construct: made in house; host or cells: HEK293T
Sequence (Q9NZQ7 with tags, fused parts or gaps): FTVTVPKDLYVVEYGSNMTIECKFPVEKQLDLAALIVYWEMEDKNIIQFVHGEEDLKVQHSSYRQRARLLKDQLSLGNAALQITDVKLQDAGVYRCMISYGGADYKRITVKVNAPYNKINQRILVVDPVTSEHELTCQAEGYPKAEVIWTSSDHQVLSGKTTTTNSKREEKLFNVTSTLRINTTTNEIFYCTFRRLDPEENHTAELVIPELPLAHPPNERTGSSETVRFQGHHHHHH
Experiment: HTRF PD-1-Ig/PD-L1-His binding assay (human PD-L1)
Settings: cluster symbol; read-out: HTRF IC50 cluster
Positions of bridges follow the written chain, without caps; N, C: chain ends. Non-standard residues stand in square brackets, D forms with d. Residues, ends and D or L forms follow the SMILES beside them. ξ: configuration not given here. ξTrp(5-F) = NC(Cc1c[nH]c2ccc(F)cc12)C(=O)O; ξPhe(βξ-Me) = CC(c1ccccc1)C(N)C(=O)O; Bta = N[C@@H](Cc1csc2ccccc12)C(=O)O; Hyp = O=C(O)[C@@H]1C[C@@H](O)CN1; NMeF = CN[C@@H](Cc1ccccc1)C(=O)O; NMeE = CN[C@@H](CCC(=O)O)C(=O)O; NMeNle = CCCC[C@H](NC)C(=O)O; NMeA = CN[C@@H](C)C(=O)O; ξC = NC(CS)C(=O)O; Sar = CNCC(=O)O
What IC50 was measured for each of the following?

Some entries whose results are on file:
{"columns": ["molecule", "IC50"],
 "data": [
  ["CCCC[C@H]1C(=O)N(C)CC(=O)N[C@@H](CC(=O)O)C(=O)N[C@@H](C(C)C)C(=O)N(C)[C@@H](Cc2ccccc2)C(=O)N[C@@H](Cc2ccc(O)cc2)C(=O)N(C)CC(=O)N[C@@H](Cc2c[nH]c3ccccc23)C(=O)N[C@@H](Cc2ccc(O)cc2)C(=O)N[C@@H](CC(C)C)C(=O)N[C@H](C(=O)NCC(N)=O)CSCC(=O)N[C@@H](Cc2ccc(OC)cc2)C(=O)N(C)[C@@H](Cc2ccccc2)C(=O)N1C [Example 3089] ({CH2CO}-Y(Me)[NMeF][NMeNle][Sar]DV[NMeF]Y[Sar]WYLCG-NH2; thioether N-13)", "> 30.5 nM"],
  ["CCCC[C@H]1C(=O)N(C)CC(=O)N[C@@H](CC(=O)O)C(=O)N[C@@H](C(C)C)C(=O)N(C)[C@@H](Cc2ccccc2)C(=O)N[C@@H](Cc2ccc(O)cc2)C(=O)N(C)CC(=O)N[C@@H](Cc2c[nH]c3ccccc23)C(=O)N[C@@H](Cc2ccc(O)cc2)C(=O)N[C@@H](CC(C)C)C(=O)N[C@H](C(=O)NCC(N)=O)CSCC(=O)NC(C(C)c2ccccc2)C(=O)N(C)[C@@H](Cc2ccccc2)C(=O)N1C (stereo partly drawn) [Example 3516] ({CH2CO}-[ξPhe(βξ-Me)][NMeF][NMeNle][Sar]DV[NMeF]Y[Sar]WYLCG-NH2; thioether N-13)", "> 30.5 nM"],
  ["CCCC[C@H]1C(=O)N(C)[C@@H](CCCC)C(=O)N[C@@H](CCCNC(=N)N)C(=O)N[C@H](C(=O)NCC(N)=O)CSCC(=O)N[C@@H](Cc2ccccc2)C(=O)N(C)[C@@H](C)C(=O)N[C@@H](CC(N)=O)C(=O)N2CCC[C@H]2C(=O)N[C@@H](Cc2cnc[nH]2)C(=O)N[C@@H](Cc2ccc(O)cc2)C(=O)N(C)CC(=O)N[C@@H](Cc2c[nH]c3ccccc23)C(=O)N[C@@H](CO)C(=O)N[C@@H](Cc2c[nH]c3ccccc23)C(=O)N1C [Example 6014] ({CH2CO}-F[NMeA]NPHY[Sar]WSW[NMeNle][NMeNle]RCG-NH2; thioether N-14)", "6.76 to 30.3 nM"],
  ["CCCC[C@H]1C(=O)N(C)[C@@H](CCCC)C(=O)N[C@@H](CCCNC(=N)N)C(=O)N[C@H](C(=O)NCC(N)=O)CSCC(=O)N[C@@H](Cc2ccccc2)C(=O)N(C)[C@@H](C)C(=O)N[C@@H](CC(N)=O)C(=O)N2CCC[C@H]2C(=O)N[C@@H](Cc2cnc[nH]2)C(=O)N[C@@H](CCCNC(=N)N)C(=O)N(C)CC(=O)N[C@@H](Cc2c[nH]c3ccccc23)C(=O)N[C@@H](CO)C(=O)N[C@@H](Cc2c[nH]c3ccccc23)C(=O)N1C [Example 6003] ({CH2CO}-F[NMeA]NPHR[Sar]WSW[NMeNle][NMeNle]RCG-NH2; thioether N-14)", "6.76 to 30.3 nM"],
  ["CCCC[C@H]1C(=O)N(C)CC(=O)N[C@@H](CC(=O)O)C(=O)N[C@@H](C(C)C)C(=O)N(C)[C@@H](Cc2ccccc2)C(=O)N[C@@H](Cc2ccc(O)cc2)C(=O)N(C)[C@@H](CCC(=O)O)C(=O)N[C@@H](Cc2csc3ccccc23)C(=O)N[C@@H](Cc2ccc(O)cc2)C(=O)N[C@@H](CC(C)C)C(=O)N[C@H](C(=O)NCC(N)=O)CSCC(=O)N[C@@H](Cc2ccccc2)C(=O)N(C)[C@@H](Cc2ccccc2)C(=O)N1C [Example 3073] ({CH2CO}-F[NMeF][NMeNle][Sar]DV[NMeF]Y[NMeE][Bta]YLCG-NH2; thioether N-13)", "0.385 to 6.74 nM"]
]}

Quick batch: IC50 for everything below.
1. CCCC[C@H]1C(=O)N(C)[C@@H](CCCC)C(=O)N[C@@H](CCCNC(=N)N)C(=O)NC(C(=O)NCC(N)=O)CSCC(=O)N[C@@H](Cc2ccc(O)cc2)C(=O)N(C)[C@@H](C)C(=O)N[C@@H](CC(N)=O)C(=O)N2CCC[C@H]2C(=O)N[C@@H](CC(N)=O)C(=O)N[C@@H](CC(C)C)C(=O)N2C[C@H](O)C[C@H]2C(=O)N[C@@H](Cc2c[nH]c3ccccc23)C(=O)N[C@@H](CO)C(=O)N[C@@H](Cc2csc3ccccc23)C(=O)N1C (some centres unmarked) [Example 9062] ({CH2CO}-Y[NMeA]NPNL[Hyp]WS[Bta][NMeNle][NMeNle]R[ξC]G-NH2; thioether N-14)
2. CCCC[C@H]1C(=O)N(C)[C@@H](C)C(=O)N[C@@H](CCCNC(=N)N)C(=O)NC(C(=O)NCC(N)=O)CSCC(=O)N[C@@H](Cc2ccc(O)cc2)C(=O)N(C)[C@@H](C)C(=O)N[C@@H](CC(N)=O)C(=O)N2CCC[C@H]2C(=O)N[C@@H](Cc2cnc[nH]2)C(=O)N[C@@H](CC(C)C)C(=O)N2C[C@H](O)C[C@H]2C(=O)N[C@@H](Cc2c[nH]c3ccccc23)C(=O)N[C@@H](CO)C(=O)N[C@@H](Cc2c[nH]c3ccccc23)C(=O)N1C (some centres unmarked)

1. 0.385 to 6.74 nM
2. 0.385 to 6.74 nM

# get_value(readout='IC50', item= CCCC[C@H]1C(=O)N(C)[C@@H](CCCC)C(=O)N[C@@H](CCCNC(=N)N)C(=O)N[C@H](C(=O)NCC(N)=O)CSCC(=O)N[C@@H](Cc2ccccc2)C(=O)N(C)[C@@H](C)C(=O)N[C@@H](CC(N)=O)C(=O)N2CCC[C@H]2C(=O)N[C@@H](Cc2cnc[nH]2)C(=O)N[C@@H](CC(C)C)C(=O)N(C)CC(=O)N[C@@H](Cc2c[nH]c3ccccc23)C(=O)N[C@@H](CO)C(=O)NC(Cc2c[nH]c3ccc(F)cc23)C(=O)N1C (some centres unmarked) [Example 1039] ({CH2CO}-F[NMeA]NPHL[Sar]WS[ξTrp(5-F)][NMeNle][NMeNle]RCG-NH2; thioether N-14) )
> 30.5 nM

Origin of measurements: patent US9850283B2
